Biological target: T1, Recombinant human MASP1 enzyme (fragment corresponding to amino acids 297-699, C-terminal His Tag) (human, UniProt P48740 297-699)
T1 sequence: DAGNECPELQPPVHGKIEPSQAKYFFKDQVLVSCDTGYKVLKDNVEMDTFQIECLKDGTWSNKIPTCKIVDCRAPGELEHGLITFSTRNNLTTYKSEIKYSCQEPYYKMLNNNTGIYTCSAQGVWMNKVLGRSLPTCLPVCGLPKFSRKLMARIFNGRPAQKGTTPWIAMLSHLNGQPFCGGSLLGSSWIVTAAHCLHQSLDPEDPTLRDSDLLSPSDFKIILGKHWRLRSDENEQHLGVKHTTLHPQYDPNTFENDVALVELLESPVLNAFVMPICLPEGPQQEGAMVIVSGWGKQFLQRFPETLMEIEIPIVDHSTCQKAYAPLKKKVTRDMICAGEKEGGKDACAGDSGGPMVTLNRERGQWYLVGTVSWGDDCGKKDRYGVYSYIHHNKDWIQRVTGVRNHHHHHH
Assay: cell-based or functional assay
Bridge positions count the residues as written; N and C are the ends. Square brackets hold non-standard residues; d marks the D form. Ends that are not written are not given here. tBuAla = CC(C)(C)C[C@H](N)C(=O)O; 2Pal = N[C@@H](Cc1ccccn1)C(=O)O; Pen = CC(C)(S)[C@H](N)C(=O)O

binder	human MASP1 IC50, nM
[2Pal]ICSRS[tBuAla]PPI[Pen]IPD-NH2 (disulfide 3-11; N-terminus assumed; SMILES CC[C@H](C)[C@H](NC(=O)[C@@H](N)Cc1ccccn1)C(=O)N[C@H]1CSSC(C)(C)[C@@H](C(=O)N[C@H](C(=O)N2CCC[C@H]2C(=O)N[C@@H](CC(=O)O)C(N)=O)[C@@H](C)CC)NC(=O)[C@H]([C@@H](C)CC)NC(=O)[C@@H]2CCCN2C(=O)[C@@H]2CCCN2C(=O)[C@H](CC(C)(C)C)NC(=O)[C@H](CO)NC(=O)[C@H](CCCNC(=N)N)NC(=O)[C@H](CO)NC1=O) [(2-Pal)-IC+SRS-((tBu)A)-PPI-(Pen)+IPD-NH2]	4.4
